Known shrunken log2 fold change of a selection of sequences
System: Escherichia coli TOP10;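 also: peptides expressed intracellularly from a pBAD plasmid library in pooled LB shake-flask culture, induced with 0.3% L-arabinose, DNA abundance read by NGS, three biological replicates, DESeq2 with apeglm shrinkage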
Experiment: shrunken log2 fold change of peptide-encoding DNA abundance (4.5 h post-induction vs induction); higher = less antimicrobial activity (less host growth inhibition)
Details: time post-induction: 4.5 h; library: site-saturation at positions 5, 18, 19, 20
Lab note: jot the number down without any unit.

Use the examples below as a reference point.
| SEQ | shrunken log2 fold change |
| --- | --- |
| RRIRNRPPRLPRPRPRPNRSPRP | -0.165 |
| RRIRTRPPRLPRPRPRPARDPRP | 0.146 |
| RRIRYRPPRLPRPRPRPHVNPRP | -0.0934 |
| RRIRSRPPRLPRPRPRPFWCPRP | -0.0118 |
| RRIRERPPRLPRPRPRPIHLPRP | -0.0986 |

shrunken log2 fold change in this record for RRIRGRPPRLPRPRPRPKSDPRP : 0.584

shrunken log2 fold change in this record for RRIRHRPPRLPRPRPRPCRHPRP : -0.204

shrunken log2 fold change in this record for RRIRWRPPRLPRPRPRPDQQPRP : 0.0822

shrunken log2 fold change in this record for RRIRRRPPRLPRPRPRPSDIPRP : -1.08

shrunken log2 fold change in this record for RRIRCRPPRLPRPRPRPIMGPRP : 0.00854

shrunken log2 fold change in this record for RRIRERPPRLPRPRPRPCCHPRP : -0.603

shrunken log2 fold change in this record for RRIRWRPPRLPRPRPRPKIRPRP : 0.00361

shrunken log2 fold change in this record for RRIRERPPRLPRPRPRPDHNPRP : -0.897

shrunken log2 fold change in this record for RRIRIRPPRLPRPRPRPKKTPRP : -0.235

shrunken log2 fold change in this record for RRIRIRPPRLPRPRPRPILIPRP : -0.097
